- testedOn: T1, soluble human insulin receptor-immunoglobulin heavy chain chimera (sIR-Fc) (human, UniProt P06213 28-956, limits assumed, Eu3+ label (LANCE) in the TR-FRET assays)
- T1 construct: extracellular domain; construct of Bass et al., 1996; also called HIR-immunoglobulin heavy chain chimera; not shown: immunoglobulin heavy chain constant domains
- experimentSummary: FP competition vs FITC-RP9, sIR-Fc
No end group written: not given here.
parameter: IC50

Problem: Can you share its IC50? I mean this binder: GGTVWPGYEWLRNA [E8 (D120)]
Solution: 207 nM

Problem: Can you share its IC50? I mean this binder: GSLDESFYDWFERQLGKK (also: biotin (b-RP9) or fluorescein (FITC-RP9) label where used, site not given here, also called S371; b-RP9) [RP9]
Solution: 10 nM

Now for a further binder.
Problem: Can you share its IC50? I mean this binder: FHENFYDWFVQRVSKK (also called D117) [H2C]
Solution: 50 nM

Sourced from patent US20030236190A1
